Reference source: patent US20230203041A1

# Tested on: human PBMCs
# protocol: CD3/CD28 stimulated IL-2 release NECA reversal assay in human PBMCs;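 also: dose-response as % inhibition where 100% equals no-NECA control wells with CD3/CD28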
# Type: cell-based
# conditions_used: PBMC, CD3/CD28 antibody stimulated, 1 uM NECA, 24 hours, IL-2 in culture supernatant
property: log10 of IC50 (log10 of the value in nM)
Scale type: logarithmic (base 10). Underlying IC50 unit: nM.

Q) Need log10 of IC50 of Cc1cc(-c2c(-c3cccc(C#N)c3)nn3ccc(C(=O)NCC(C)(C)O)nc23)cc(C(F)(F)F)n1 , thanks.
A) 0.30

Q) Need log10 of IC50 of Cc1cc(-c2c(-c3cccc(C#N)c3)nn3ccc(N4CCO[C@@H](C(=O)O)C4)nc23)cc(Cl)n1 , thanks.
A) 1.96

Q) Need log10 of IC50 of Cc1cc(-c2c(-c3cccc(C#N)c3)nn3ccc(C(=O)NCC(C)(C)O)nc23)cc(C)n1 , thanks.
A) 0.78

Q) Need log10 of IC50 of Cc1cc(-c2c(-c3cccc(C#N)c3)nn3ccc(C(=O)N[C@H]4CNC[C@H]4O)nc23)cc(Cl)n1 , thanks.
A) 1.85

Q) Need log10 of IC50 of Cc1cc(-c2c(-c3cccc(C#N)c3)nn3ccc(N/C(=N\C#N)NCC(C)(C)O)nc23)cc(Cl)n1 , thanks.
A) 1.20

Q) Need log10 of IC50 of Cc1cc(-c2c(-c3cccc(C#N)c3)nn3ccc(C(=O)N(C)CC(C)(C)O)nc23)cc(Cl)n1 , thanks.
A) 1.97

Q) Need log10 of IC50 of Cc1cc(-c2c(-c3cccc(C#N)c3)nn3ccc(NC[C@H]4COCCN4)nc23)cc(Cl)n1 , thanks.
A) 1.08

Q) Need log10 of IC50 of Cc1cc(-c2c(-c3cccc(C#N)c3)nn3ccc(C(=O)NCC4(O)COC4)nc23)cc(C)n1 , thanks.
A) 1.04

Q) Need log10 of IC50 of Cc1cc(-c2c(-c3cccc(C#N)c3)nn3ccc(N)nc23)cc(Cl)n1 , thanks.
A) 1.57

Q) Need log10 of IC50 of Cc1cc(-c2c(-c3cccc(C#N)c3)nn3ccc(N[C@@H]4CCCNC4)nc23)cc(Cl)n1 , thanks.
A) 1.73

Q) Need log10 of IC50 of Cc1cc(-c2c(-c3cccc(C#N)c3)nn3ccc(N[C@H](C)C(C)(C)O)nc23)cc(Cl)n1 , thanks.
A) 1.83

Q) Need log10 of IC50 of Cc1cc(-c2c(-c3cccc(C#N)c3)nn3ccc(N)nc23)cc(C(F)F)n1 , thanks.
A) 1.51

Q) Need log10 of IC50 of CC(=O)Nc1ccn2nc(-c3cccc(C#N)c3)c(-c3cc(C)nc(Cl)c3)c2n1 , thanks.
A) 1.41

Q) Need log10 of IC50 of Cc1cc(-c2c(-c3cccc(C#N)c3)nn3ccc(C(=O)NC(C)(C)C)nc23)cc(Cl)n1 , thanks.
A) 1.30

Q) Need log10 of IC50 of c1ccc(CNc2ccn3nc(-c4ccco4)cc3n2)cc1 , thanks.
A) 3.28

Q) Need log10 of IC50 of Cc1ccc(-c2nn3ccc(NCc4ccccc4)nc3c2C#N)o1 , thanks.
A) 2.16

Q) Need log10 of IC50 of COc1cc(-c2c(-c3cccc(C#N)c3)nn3ccc(NCC(C)(C)O)nc23)cc(C)n1 , thanks.
A) 1.92

Q) Need log10 of IC50 of Cc1cc(-c2c(-c3cccc(C#N)c3)nn3ccc(C(=O)NCC(C)(O)CO)nc23)cc(C)n1 (centres unmarked) , thanks.
A) 1.15

Q) Need log10 of IC50 of Cc1cc(-c2c(-c3cccc(C#N)c3)nn3ccc(NCC(C)(C)O)nc23)cc(C(F)F)n1 , thanks.
A) 1.30

Q) Need log10 of IC50 of Cc1cc(-c2c(-c3cccc(C#N)c3)nn3ccc(C(=O)NC(C)(C)C(C)(C)O)nc23)cc(Cl)n1 , thanks.
A) 0.76

Q) Need log10 of IC50 of Cc1cc(-c2c(-c3cccc(C#N)c3)nn3ccc(NC[C@H](C)O)nc23)cc(Cl)n1 , thanks.
A) 1.36

Q) Need log10 of IC50 of Cc1cc(-c2c(-c3cccc(C#N)c3)nn3ccc(NCCC(C)(C)O)nc23)cc(Cl)n1 , thanks.
A) 1.28

Q) Need log10 of IC50 of Cc1cc(-c2c(-c3cccc(C#N)c3)nn3ccc(C(=O)NCC(C)(C)O)nc23)cc(C(F)F)n1 , thanks.
A) 0.60
